molecular target: Inhibitor of nuclear factor kappa-B kinase subunit beta (Homo sapiens); assay: Inhibition of human recombinant IKK2
Measure name: pIC50
Interpret pIC50 as the negative base-10 log of the concentration measured in mol/L.

[[record]]
molecule = "NC(=O)Cn1cc(CN2CCN(c3cc(C(=O)Nc4ccc5c(c4)-c4c(c(C(N)=O)nn4-c4ccc(F)cc4)CC5)c(Cl)cn3)CC2)cn1"
value_observed = 9.05


// returns pIC50 for NC(=O)c1nn(-c2ccc(F)cc2)c2c1CCc1ccc(NC(=O)c3cc(N4CCN(Cc5cnn(CC(=O)NCCO)c5)CC4)ncc3Cl)cc1-2 with Inhibitor of nuclear factor kappa-B kinase subunit beta (Homo sapiens); value = 9.00

// returns pIC50 for C[C@H]1CN(c2cc(C(=O)Nc3ccc4c(c3)-c3c(c(C(N)=O)nn3-c3ccc(F)cc3)CC4)c(Cl)cn2)CCN1Cc1cnn(C)c1 with Inhibitor of nuclear factor kappa-B kinase subunit beta (Homo sapiens); value = 8.46

// returns pIC50 for COCCOC(=O)Cn1cc(CN2CCN(c3cc(C(=O)Nc4ccc5c(c4)-c4c(c(C(N)=O)nn4-c4ccc(F)cc4)CC5)c(Cl)cn3)CC2)cn1 with Inhibitor of nuclear factor kappa-B kinase subunit beta (Homo sapiens); value = 8.89

// returns pIC50 for Cc1nn(C)cc1CN1CCN(c2cc(C(=O)Nc3ccc4c(c3)-c3c(c(C(N)=O)nn3-c3ccc(F)cc3)CC4)c(Cl)cn2)CC1 with Inhibitor of nuclear factor kappa-B kinase subunit beta (Homo sapiens); value = 8.37

// returns pIC50 for CN1CCN(c2cc(C(=O)Nc3ccc4c(c3)-c3c(c(C(N)=O)nn3-c3ccc(F)c(F)c3)CC4)c(Cl)cn2)CC1 with Inhibitor of nuclear factor kappa-B kinase subunit beta (Homo sapiens); value = 8.00

* * *

target: Inhibitor of nuclear factor kappa-B kinase subunit beta (Homo sapiens, UniProt O14920); test: Inhibition of human recombinant IKK2
Entries and their measured IC50 follow.
Quick reminder: number only, in nM, skip the unit.

[[record]]
molecular_string = "CN1CCN(c2cc(C(=O)Nc3ccc4c(c3)-c3c(c(C(N)=O)nn3-c3ccc(F)cc3)CC4)c(Cl)cn2)CC1"
unit_of_measure = "nM"
value_observed = 1.6

[[record]]
molecular_string = "CN1CCN(c2cc(C(=O)Nc3ccc4c(c3)-c3c(c(C(N)=O)nn3-c3cccc(F)c3)CC4)c(Cl)cn2)CC1"
unit_of_measure = "nM"
value_observed = 4.8


Consider the additional compound presented here.
Lookup result for COC(=O)Cn1cc(CN2CCN(c3cc(C(=O)Nc4ccc5c(c4)-c4c(c(C(N)=O)nn4-c4ccc(F)cc4)CC5)c(Cl)cn3)CC2)cn1 ; measured IC50: 1.1

* * *

target: Inhibitor of nuclear factor kappa-B kinase subunit beta (Homo sapiens) (UniProt O14920); test: Binding affinity to human IKK2 in PBMC assessed as half life by cell-based assay
Entries and their measured T1/2 follow.

Field: example entries. Status: answers known.
[[record]]
molecular_string = "NC(=O)Cn1cc(CN2CCN(c3cc(C(=O)Nc4ccc5c(c4)-c4c(c(C(N)=O)nn4-c4ccc(F)cc4)CC5)c(Cl)cn3)CC2)cn1"
measure_name = "T1/2"
value_observed = "< 4 h"

[[record]]
molecular_string = "NC(=O)c1nn(-c2ccc(F)cc2)c2c1CCc1ccc(NC(=O)c3cc(N4CCN(Cc5cnn(CC(=O)N(CCO)CCO)c5)CC4)ncc3Cl)cc1-2"
measure_name = "T1/2"
value_observed = "> 4 h"

[[record]]
molecular_string = "CNC(=O)Cn1cc(CN2CCN(c3cc(C(=O)Nc4ccc5c(c4)-c4c(c(C(N)=O)nn4-c4ccc(F)cc4)CC5)c(Cl)cn3)CC2)cn1"
measure_name = "T1/2"
value_observed = "> 4 h"

[[record]]
molecular_string = "COCCNC(=O)Cn1cc(CN2CCN(c3cc(C(=O)Nc4ccc5c(c4)-c4c(c(C(N)=O)nn4-c4ccc(F)cc4)CC5)c(Cl)cn3)CC2)cn1"
measure_name = "T1/2"
value_observed = "> 4 h"

[[record]]
molecular_string = "CCOC(=O)Cn1cc(CN2CCN(c3cc(C(=O)Nc4ccc5c(c4)-c4c(c(C(N)=O)nn4-c4cccc(F)c4)CC5)c(Cl)cn3)CC2)cn1"
measure_name = "T1/2"
value_observed = "> 4 h"


Consider the additional compound presented here.
// returns T1/2 for NC(=O)c1nn(-c2ccc(F)cc2)c2c1CCc1ccc(NC(=O)c3cc(N4CCN(Cc5cnn(CCCO)c5)CC4)ncc3Cl)cc1-2 with Inhibitor of nuclear factor kappa-B kinase subunit beta (Homo sapiens) (UniProt O14920); value = > 4 h

* * *

molecular target: Voltage-gated inwardly rectifying potassium channel KCNH2 (Homo sapiens); assay: Displacement of dofetilide from human ERG transfected in HEK293 cells by fluorescence polarization assay
Sequence (Q12809 whole entry): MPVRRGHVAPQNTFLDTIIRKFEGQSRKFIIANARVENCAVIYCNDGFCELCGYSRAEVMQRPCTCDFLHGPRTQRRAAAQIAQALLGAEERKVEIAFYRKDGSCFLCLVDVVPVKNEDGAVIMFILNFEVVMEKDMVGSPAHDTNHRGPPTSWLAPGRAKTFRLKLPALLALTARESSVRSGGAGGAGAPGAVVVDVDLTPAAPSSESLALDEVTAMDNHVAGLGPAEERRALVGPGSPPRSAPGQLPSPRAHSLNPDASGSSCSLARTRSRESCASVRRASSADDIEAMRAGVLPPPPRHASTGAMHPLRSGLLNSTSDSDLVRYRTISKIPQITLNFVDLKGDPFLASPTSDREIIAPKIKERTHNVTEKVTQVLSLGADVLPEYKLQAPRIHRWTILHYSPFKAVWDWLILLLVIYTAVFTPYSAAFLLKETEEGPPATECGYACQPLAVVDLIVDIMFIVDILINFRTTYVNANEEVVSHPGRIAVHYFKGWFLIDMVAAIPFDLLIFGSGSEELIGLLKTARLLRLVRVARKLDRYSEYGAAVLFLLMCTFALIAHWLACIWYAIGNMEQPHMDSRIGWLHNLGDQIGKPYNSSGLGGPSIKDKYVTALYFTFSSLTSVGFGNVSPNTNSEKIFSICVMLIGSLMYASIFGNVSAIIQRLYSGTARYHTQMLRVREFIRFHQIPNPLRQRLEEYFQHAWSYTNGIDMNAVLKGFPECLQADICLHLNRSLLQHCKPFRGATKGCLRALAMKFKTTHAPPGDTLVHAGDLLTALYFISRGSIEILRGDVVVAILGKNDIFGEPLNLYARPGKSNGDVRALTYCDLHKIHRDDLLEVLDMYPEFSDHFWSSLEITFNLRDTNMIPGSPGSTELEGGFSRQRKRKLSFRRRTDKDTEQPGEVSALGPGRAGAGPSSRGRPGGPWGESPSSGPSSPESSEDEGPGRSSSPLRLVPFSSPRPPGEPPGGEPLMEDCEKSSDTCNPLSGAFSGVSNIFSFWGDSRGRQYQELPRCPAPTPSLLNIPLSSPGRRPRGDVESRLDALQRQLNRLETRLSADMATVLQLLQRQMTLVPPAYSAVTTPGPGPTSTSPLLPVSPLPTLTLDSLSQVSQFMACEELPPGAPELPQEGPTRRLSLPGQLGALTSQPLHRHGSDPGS
Group membership follows inhibition (INH) per the scheme class A: < 50%; class B: ≥ 50% and < 80%; class C: ≥ 80%

Problem: # bin lookup: classify CNC(=O)Cn1cc(CN2CCN(c3cc(C(=O)Nc4ccc5c(c4)-c4c(c(C(N)=O)nn4-c4ccc(F)cc4)CC5)c(Cl)cn3)CC2)cn1 by its inhibition (INH)
Result: class B

Problem: # bin lookup: classify NC(=O)c1nn(-c2ccc(F)cc2)c2c1CCc1ccc(NC(=O)c3cc(N4CCN(Cc5cnn(CC(=O)O)c5)CC4)ncc3Cl)cc1-2 by its inhibition (INH)
Result: class A

Problem: # bin lookup: classify NC(=O)c1nn(-c2ccc(F)cc2)c2c1CCc1ccc(NC(=O)c3cc(N4CCN(Cc5cnn(CC(=O)NCCO)c5)CC4)ncc3Cl)cc1-2 by its inhibition (INH)
Result: class A

Problem: # bin lookup: classify CN(C)CCCNC(=O)Cn1cc(CN2CCN(c3cc(C(=O)Nc4ccc5c(c4)-c4c(c(C(N)=O)nn4-c4ccc(F)cc4)CC5)c(Cl)cn3)CC2)cn1 by its inhibition (INH)
Result: class A

Problem: # bin lookup: classify CC(C)NC(=O)Cn1cc(CN2CCN(c3cc(C(=O)Nc4ccc5c(c4)-c4c(c(C(N)=O)nn4-c4ccc(F)cc4)CC5)c(Cl)cn3)CC2)cn1 by its inhibition (INH)
Result: class C

Problem: # bin lookup: classify COCCNC(=O)Cn1cc(CN2CCN(c3cc(C(=O)Nc4ccc5c(c4)-c4c(c(C(N)=O)nn4-c4ccc(F)cc4)CC5)c(Cl)cn3)CC2)cn1 by its inhibition (INH)
Result: class B

* * *

Biological target: Inhibitor of nuclear factor kappa-B kinase subunit beta (Homo sapiens, UniProt O14920)
Sequence (O14920 whole entry): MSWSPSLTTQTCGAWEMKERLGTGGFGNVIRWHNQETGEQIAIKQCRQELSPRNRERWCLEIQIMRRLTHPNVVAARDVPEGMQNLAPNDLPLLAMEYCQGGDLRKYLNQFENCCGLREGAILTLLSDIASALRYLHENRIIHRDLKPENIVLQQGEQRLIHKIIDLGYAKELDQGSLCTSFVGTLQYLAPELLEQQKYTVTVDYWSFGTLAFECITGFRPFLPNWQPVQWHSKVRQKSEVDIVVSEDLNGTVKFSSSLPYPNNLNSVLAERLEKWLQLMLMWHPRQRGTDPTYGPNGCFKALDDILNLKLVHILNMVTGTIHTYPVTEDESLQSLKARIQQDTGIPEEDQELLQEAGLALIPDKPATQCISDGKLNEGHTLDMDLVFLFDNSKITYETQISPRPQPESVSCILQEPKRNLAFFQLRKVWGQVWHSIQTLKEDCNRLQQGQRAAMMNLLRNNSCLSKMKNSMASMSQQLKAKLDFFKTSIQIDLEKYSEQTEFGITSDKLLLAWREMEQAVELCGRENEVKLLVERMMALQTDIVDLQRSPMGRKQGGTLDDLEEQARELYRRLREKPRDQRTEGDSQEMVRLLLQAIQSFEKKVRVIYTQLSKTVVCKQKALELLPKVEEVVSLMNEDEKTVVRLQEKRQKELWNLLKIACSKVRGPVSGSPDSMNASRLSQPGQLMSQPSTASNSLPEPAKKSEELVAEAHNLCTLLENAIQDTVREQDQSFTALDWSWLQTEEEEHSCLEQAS
Assay: Inhibition of human recombinant IKK2
Entries and their measured pIC50 follow.
Interpret pIC50 as the negative base-10 log of the concentration measured in mol/L.

[[record]]
molecule = "COCCNC(=O)Cn1cc(CN2CCN(c3cc(C(=O)Nc4ccc5c(c4)-c4c(c(C(N)=O)nn4-c4ccc(F)cc4)CC5)c(Cl)cn3)CC2)cn1"
measure_name = "pIC50"
value_observed = 8.89

[[record]]
molecule = "CCn1cc(CN2CCN(c3cc(C(=O)Nc4ccc5c(c4)-c4c(c(C(N)=O)nn4-c4ccc(F)cc4)CC5)c(Cl)cn3)CC2)cn1"
measure_name = "pIC50"
value_observed = 8.38

[[record]]
molecule = "Cn1cc(CN2CCN(c3cc(C(=O)Nc4ccc5c(c4)-c4c(c(C(N)=O)nn4-c4ccc(F)cc4)CC5)c(Cl)cn3)C(C(=O)O)C2)cn1 (centres undefined)"
measure_name = "pIC50"
value_observed = 9.30


Consider the additional molecule presented here.
Lookup result for NC(=O)c1nn(-c2ccc(F)cc2)c2c1CCc1ccc(NC(=O)c3cc(N4CCN(Cc5cnn(CCCO)c5)CC4)ncc3Cl)cc1-2 ; measured pIC50: 8.66
